assay_comment: Induction of nitric oxide release at 0.1 mM after 2 hrs in phosphate buffer at pH 7.4 by Griess assay
Format: physicochemical
experimental_parameters: pH 7.4, 2 h, 100 µM
experimental_readout: Activity (mol/mol)
Give bare numbers, in mol/mol.

compound	Activity (mol/mol)
CC(O[N+](=O)[O-])C(=O)Nc1ccc(C(=O)/C=C/c2ccc3c(c2)OCO3)cc1 (stereo unspecified)	0.14

Take each entry in turn and give its Activity.
1. CC(O[N+](=O)[O-])C(=O)Nc1ccc(C(=O)/C=C/c2ccc(Cl)cc2)cc1 (stereo unspecified)
2. O=C(COCc1c(-c2ccccc2)no[n+]1[O-])Nc1ccc(C(=O)/C=C/c2ccco2)cc1
3. O=C(CO[N+](=O)[O-])Nc1ccc(C(=O)/C=C/c2ccc(Cl)cc2)cc1
4. COc1ccc(/C=C/C(=O)c2ccc(NC(=O)COCc3c(-c4ccccc4)no[n+]3[O-])cc2)cc1
5. C/C(=N/O)c1ccc(OCC(=O)Nc2ccc(C(=O)/C=C/c3ccco3)cc2)cc1
6. CC(O[N+](=O)[O-])C(=O)Nc1ccc(C(=O)/C=C/c2ccco2)cc1 (stereo unspecified)
7. C/C(=N/O)c1ccc(OCC(=O)Nc2ccc(C(=O)/C=C/c3ccc4c(c3)OCO4)cc2)cc1

Found:
[0.16, 0.23, 0.37, 0.27, 0.12, 0.11, 0.16]
